System: ERBB3;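 further: KINOMEscan scanMAX binding as percent activity remaining versus control; lower means stronger binding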
Details: Compound Concentration (nM):1000
Property Name: Percent Control (%)
One number for each entry, in %.

Solved cases below.
Cl.O=C(Nc1ccc(Oc2ccc3[nH]c(NC(=O)c4ccco4)nc3c2)cc1)Nc1cc(C(F)(F)F)ccc1F [GW683134A]; 77
COc1ccccc1-c1cc(/C=C2\C(=O)Nc3ncc(Br)cc32)cc(Br)c1O [GW442130X]; 95
COc1cccc(-c2c[nH]c3c(N/N=C/c4ccncc4)ncnc23)c1 [GW814408X]; 13

Please report Percent Control for every entry that follows.
1. CCS(=O)(=O)c1ccc(OC)c(Nc2ncc(-c3cccc(OC)c3)o2)c1 [GW580509X]
2. CCS(=O)(=O)c1ccc(OC)c(Nc2ncc(-c3cccc(F)c3)o2)c1 [GW621970X]
3. Cl.O=C(O[C@H]1CN[C@H](C#Cc2cc3ncnc(Nc4ccc5c(cnn5Cc5ccccc5)c4)c3s2)C1)N1CCOCC1 [GSK200398A]
4. COc1ccc(COc2ccc(Cc3cnc(N)nc3N)cc2OC)cc1 [GW632580X]
5. Cc1cc(O)cc(C)c1/C=C/c1cncc(C(N)=O)c1 [GW435821X]

Marked response:
[54, 53, 10, 85, 43]

Please report Percent Control for every entry that follows.
1. CN1CCN(C(=O)c2ccc(NC(=O)Nc3ccc(N(C)c4ccnc(Nc5ccc(CS(C)(=O)=O)cc5)n4)cc3)cc2)CC1.Cl [GW830263A]
2. C/C(Nc1ccc(S(N)(=O)=O)cc1)=C1/C(=O)Nc2ccccc21 [GW335962X]
3. COc1cc(/C=N/Nc2ncnc3[nH]ncc23)ccc1O [GW578748X]

Marked response:
[85, 74, 64]

Please report Percent Control for every entry that follows.
1. CC1=C(C(=O)Nc2ccc3[nH]ncc3c2)C(c2ccc(Cl)c(Cl)c2)CC(=O)N1 (stereo not shown) [GSK299115A]
2. NS(=O)(=O)c1ccc(N/N=C2\C(=O)Nc3ccc(-c4cnco4)cc32)cc1
3. COc1ccc2[nH]c3c4[nH]c5ccc(OC)cc5c4c4c(c3c2c1)C(=O)NC4=O [GW296115X]
4. NS(=O)(=O)c1ccc(N/N=C2\C(=O)Nc3ccc(C(=O)NCCc4c[nH]cn4)cc32)cc1 [GW300660X]

Marked response:
1: 100; 2: 76; 3: 85; 4: 86

From: paper PMC7826789
